Hey, just so you know, these numbers are from paper PMC11818225.

Target: human CA II (Homo sapiens)
Measure Name: Ki (nM)

structure_as_smiles=NNC(=S)NCCc1ccc(S(N)(=O)=O)cc1 measure_name=Ki units=nM observed=8.51
structure_as_smiles=COc1ccc(/C=N/NC(=S)NCCc2ccc(S(N)(=O)=O)cc2)cc1 measure_name=Ki units=nM observed=321
structure_as_smiles=NNC(=S)Nc1cccc(S(N)(=O)=O)c1 measure_name=Ki units=nM observed=439
structure_as_smiles=NS(=O)(=O)c1ccc(CCNC(=S)N/N=C/c2ccccc2)cc1 measure_name=Ki units=nM observed=70.2
structure_as_smiles=NS(=O)(=O)c1cccc(NC(=S)N/N=C/c2ccccn2)c1 measure_name=Ki units=nM observed=2.5
structure_as_smiles=NS(=O)(=O)c1ccc(CCNC(=S)N/N=C/c2ccc(Br)cc2)cc1 measure_name=Ki units=nM observed=813
structure_as_smiles=NS(=O)(=O)c1ccc(CCNC(=S)N/N=C/c2ccccn2)cc1 measure_name=Ki units=nM observed=83.9
structure_as_smiles=NS(=O)(=O)c1ccc(CCNC(=S)N/N=C/c2ccc(F)cc2)cc1 measure_name=Ki units=nM observed=590
structure_as_smiles=NS(=O)(=O)c1ccc(CCNC(=S)N/N=C/c2ccc(Cl)cc2)cc1 measure_name=Ki units=nM observed=773
